Test system: IRAK1
CONDITION_DETAILS: concentration: 1 μM,replicates: in singlicate; n = 1;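 note: KINOMEscan kinase panel screen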
Threshold rule: %Inh greater than or equal to 20% is fulfilled; below that, not fulfilled.

- MOLECULE: "Cl.Cl.NC[C@H](CC1CCCCC1)NC(=O)c1cc(Br)c(-c2ccnc3[nH]ccc23)s1 [GSK1581427]"
  DISCRETE_LABEL: "fulfilled"
- MOLECULE: "O=C(NCCCN1CCOC1=O)c1cnc(NCc2cc(Cl)ccc2Cl)nc1NC1CCCC1"
  DISCRETE_LABEL: "fulfilled"
- MOLECULE: "CCN(CC)CCOc1ccc(Nc2ncc3cc(-c4c(Cl)cccc4Cl)c(=O)n(C)c3n2)cc1 [SB-601273]"
  DISCRETE_LABEL: "fulfilled"
- MOLECULE: "CCN(CC)CCCCNc1ncc2cc(-c3c(Cl)cccc3Cl)c(NC(=O)NC(C)(C)C)nc2n1"
  DISCRETE_LABEL: "not fulfilled"
- MOLECULE: "Cc1cc2cn[nH]c2cc1-c1cccc2c(N)c(C(N)=O)nnc12"
  DISCRETE_LABEL: "fulfilled"

Does the reported %Inh for Cl.Cl.Nc1nc(-c2ccc3c(N)n[nH]c3c2)cc(N2CCCC(NC(=O)c3ccccc3)C2)n1 (centres unmarked) [GSK2286775] fall at or above the 20% mark?
not fulfilled

Hi, just wondering whether COc1ccc(C[C@@H](CN)NC(=O)c2cc(Br)c(-c3ccnc4[nH]ccc34)s2)cc1.Cl.Cl [GSK1389063] shows %Inh of 20% or higher.
fulfilled

* * *

Tested on: ULK2
CONDITION_DETAILS: concentration: 1 μM,replicates: in singlicate; n = 1
Could you please report measured %Inh for the items listed next?
Give bare numbers, in %.

- MOLECULE_SMILES: "NC(=O)c1cc(-c2ccccc2)cc2c(C3CCNCC3)c[nH]c12"
  EXPERIMENTAL_SYSTEM: "ULK2"
  %Inh / %: 29
- MOLECULE_SMILES: "Cc1n[nH]c2ccc(-c3cc(OC[C@@H](N)Cc4ccccc4)cnc3-c3ccoc3)cc12.O=C(O)C(F)(F)F.O=C(O)C(F)(F)F"
  EXPERIMENTAL_SYSTEM: "ULK2"
  %Inh / %: 8
- MOLECULE_SMILES: "Cc1cc(C(=O)Nc2ccc(Oc3ccc4nc(NC(=O)C5CC5)cn4n3)cc2)nn1-c1ccccc1"
  EXPERIMENTAL_SYSTEM: "ULK2"
  %Inh / %: 0

Fill in the blank: the reported %Inh of `C[C@H]1Oc2cc(cnc2N)-c2c(nn(C)c2C#N)CN(C)C(=O)c2ccc(F)cc21` is ____.
0

* * *

System: ERBB2
CONDITION_DETAILS: concentration: 1 μM,replicates: in singlicate; n = 1
Could you label it y if measured %Inh is 20% or higher, and n otherwise?

Previously resolved entries follow.
- MOLECULE_SMILES: "COc1ccc(C[C@@H](CN)NC(=O)c2cc(Br)c(-c3ccnc4[nH]ccc34)s2)cc1.Cl.Cl"
  EXPERIMENTAL_SYSTEM: "ERBB2"
  DISCRETE_LABEL: "y"
- MOLECULE_SMILES: "Cc1occc1-c1nc(N)c(OC[C@@H](N)Cc2c[nH]c3ccccc23)cc1-c1cc2c(C)n[nH]c2cn1"
  EXPERIMENTAL_SYSTEM: "ERBB2"
  DISCRETE_LABEL: "y"

Check this molecule for %Inh at or above 20%: `Cc1ccc(-n2nc(C(C)(C)C)cc2NC(=O)Nc2ccc(OCCN3CCOCC3)c3ccccc23)cc1`
y

Check the entry `Cc1ccc2c(-c3ccncc3)c(-c3ccc(F)cc3)nn2c1.Cl` : does %Inh equal or exceed 20%?
y

Does the molecule `Cl.Oc1cc(-c2nc(-c3ccccc3)[nH]c2-c2ccncc2)ccc1Cl` have recorded %Inh that is 20% or more?
n

Is reported %Inh greater than or equal to 20% here: `CC(C)N1C(=O)Cc2cc(Nc3ncc(C(F)(F)F)c(NCc4cccc(S(C)(=O)=O)c4)n3)ccc21`
n

Identify whether the reported %Inh of the following molecule is 20% or greater: `CN(C)CCOc1ccc(-c2cc(-c3c[nH]nc3-c3ccccn3)ccn2)cc1`
n

Is %Inh for `CNC(=O)c1ccccc1Sc1ccc2c(/C=C/c3ccccn3)n[nH]c2c1` at or above 20%?
y

Data provenance: paper PMC5540273
